# System: MDA-MB-231 breast
# method: NCI tumour cell line growth inhibition, 384-well format
parameter: GI50

Worked set:
moleculeSmiles	result
CCOC(=O)c1ccc2[nH]c(Cc3[nH]c4ccc(C(=O)OCC)cc4c3C)c(C)c2c1	0.601 µM
COc1cc(C(=O)O)ccc1NC(=O)[C@@H]1N[C@@H](CC(C)(C)C)[C@](C#N)(c2ccc(Cl)cc2F)[C@H]1c1cccc(Cl)c1F	3.48 µM
CO[C@H]1C[C@@H]2CC[C@@H](C)[C@@](O)(O2)C(=O)C(=O)N2CCCC[C@H]2C(=O)O[C@H]([C@H](C)C[C@@H]2CC[C@@H](OC(=O)C(C)(CO)CO)[C@H](OC)C2)CC(=O)[C@H](C)/C=C(\C)[C@@H](O)[C@@H](OC)C(=O)[C@H](C)C[C@H](C)/C=C/C=C/C=C/1C	1.82 µM

Now turn to the next compound.
Field GI50 (entry Cc1c(N(C(=O)c2cc(-c3cc(Cl)ccc3C(=O)N3Cc4ccccc4C[C@H]3CN3CCOCC3)n(C)c2C)c2ccc(O)cc2)cc(C#N)n1C ) reads 3.74 µM
